src = PubChem BioAssay (NCI)

- Test system: 786-0 renal
- test.name: NCI-60 one-dose screen, 48 h
- measurement.conditions: 10 µM unless noted
- Experimental: Cells are grown in 96 well plates and exposed to the test compound for 48 hours. Compounds are tested at a single concentration, which is 10^-5 M for most compounds. The reported endpoint is percent growth (GI% or GIPRCNT), where numbers from 0 - 100% represent growth inhibition, and numbers from -100% - 0 represent cell death. For example, a value of 40 represents 60% growth inhibition. A value of 0 means no net growth occurred over the course of the experiment. […]
About 83,000 compounds went through this panel and 20% of them were active in at least one assay; those are over-represented in the sample as a whole. Calls of active or inactive are those of the source. Rule for the calls: active = growth percent below 10; inactive = the rest.
Outcome codes: 1 (yes) (active), 0 (no) (inactive)

compound_string=Cc1csc(Nc2cccc(Nc3nc(C)cs3)c2)n1 assay_system="786-0 renal" discrete_label="0 (no)"
compound_string=CCc1ccc(NC(=O)N[C@@H](Cc2cc(F)cc(F)c2)C(=O)N[C@@H]2C(=O)N3CCC[C@H]3C(=O)N3CCO[C@H](C)[C@H]3C(=O)N[C@@H](CO)C(=O)N3C[C@H](C)C[C@H]3C(=O)O[C@H]2C)c(F)c1 assay_system="786-0 renal" discrete_label="0 (no)"
compound_string=O=C1/C(=C/c2ccc([N+](=O)[O-])cc2)SC(=Nc2ccccc2)N1Nc1ccccc1 assay_system="786-0 renal" discrete_label="0 (no)"
compound_string=O=C(NCCCNc1cc(-c2cn(-c3ccccc3)nc2-c2cccc(O)c2)ccn1)Nc1ccc(F)cc1 assay_system="786-0 renal" discrete_label="1 (yes)"
